Values were extracted from PubChem BioAssay AID1745844.

test system: rodent lifetime carcinogenesis bioassay, tumor incidence TD50; experiment: carcinogenic potency in animals, long-term in vivo studies, CPDB compilation (AID 1745844); details: rat; strain Wistar albino; females; i.p.; site: skin; lesion: neoplasm; dosed 26 weeks; study length 52 weeks
ENDPOINT: TD50

# input Specify reported TD50 for the molecule shown: "CN(N=O)C(=O)NCCC[C@H](N)C(=O)O"
# output 1.42 mg/kg/day

* * *

system: rodent lifetime carcinogenesis bioassay, tumor incidence TD50; test: carcinogenic potency in animals, long-term in vivo studies, CPDB compilation (AID 1745844); details: rat; strain Fischer 344; females; in drinking water; site: forestomach; lesion: papilloma; dosed 50 weeks; study length 125 weeks
ENDPOINT: TD50

# input Specify reported TD50 for the molecule shown: CC1CN(N=O)CC(C)N1C(=O)c1ccccc1 (stereo unspecified)
# output 9.66 mg/kg/day

* * *

test system: rodent lifetime carcinogenesis bioassay, tumor incidence TD50; experiment: carcinogenic potency in animals, long-term in vivo studies, CPDB compilation (AID 1745844); conditions: rat; strain Fischer 344; females; in drinking water; site: liver; lesion: hepatocellular carcinoma; dosed 98 weeks; study length 104 weeks
ENDPOINT: TD50 (mg/kg/day)
Give bare numbers, in mg/kg/day.

# input Specify reported TD50 for the molecule shown: "Cc1ccc(S(=O)(=O)Oc2ccc(N=Nc3ccc(-c4ccc(N=Nc5c(O)ccc6cc(S(=O)(=O)O)cc(S(=O)(=O)O)c56)c(C)c4)cc3C)cc2)cc1"
# output 42.5

* * *

tested on: rodent lifetime carcinogenesis bioassay, tumor incidence TD50; test: carcinogenic potency in animals, long-term in vivo studies, CPDB compilation (AID 1745844); settings: rat; strain Sprague-Dawley; females; in drinking water; site: pituitary gland; lesion: neoplasm, NOS; dosed 104 weeks; study length 120 weeks
ENDPOINT: TD50 (mg/kg/day)
Give bare numbers, in mg/kg/day.

# input GET TD50 where system = rodent lifetime carcinogenesis bioassay, tumor incidence TD50 and item = "CCO"
# output 5480

* * *

test system: rodent lifetime carcinogenesis bioassay, tumor incidence TD50; experiment: carcinogenic potency in animals, long-term in vivo studies, CPDB compilation (AID 1745844); details: mouse; strain B6C3F1; males; inhaled; site: liver; lesion: hepatocellular carcinoma; dosed 104 weeks; study length 104 weeks
The source made the active and inactive calls. The rule behind the calls is not given here.
Record form. Attribute: TD50. Fill in for each entry.

[[record]]
smiles_representation = "FCC(F)(F)F"
system_name = "rodent lifetime carcinogenesis bioassay, tumor incidence TD50"
endpoint = "TD50"
recorded_result = "260000 mg/kg/day (inactive)"

[[record]]
smiles_representation = "C=CC(=C)Cl"
system_name = "rodent lifetime carcinogenesis bioassay, tumor incidence TD50"
endpoint = "TD50"
recorded_result = "21.6 mg/kg/day"


Kindly consider the entry below.
# input Specify reported TD50 for the compound shown: "CC(Cl)(Cl)Cl"
# output 66300 mg/kg/day (inactive)

* * *

tested on: rodent lifetime carcinogenesis bioassay, tumor incidence TD50; assay: carcinogenic potency in animals, long-term in vivo studies, CPDB compilation (AID 1745844); settings: mouse; strain Charles River CD1; females; in feed; site: liver; lesion: hemangioma; dosed 86 weeks; study length 86 weeks
Calls of active or inactive are those of the source. The rule behind the calls is not given here.
ENDPOINT: TD50

# input Specify reported TD50 for the compound shown: "Cc1ccc2c(-c3ccccc3)nc(=O)n(C(C)C)c2c1"
# output 48700 mg/kg/day (inactive)

* * *

test system: rodent lifetime carcinogenesis bioassay, tumor incidence TD50; assay: carcinogenic potency in animals, long-term in vivo studies, CPDB compilation (AID 1745844); settings: rat; strain Sprague-Dawley; females; i.p.; site: brain + cerebrum; lesion: olfactory neuroblastoma + mucinous adenocarcinoma; dosed 26 weeks; study length 80 weeks
ENDPOINT: TD50

# input Specify reported TD50 for the molecule shown: "CNNCc1ccc(C(=O)NC(C)C)cc1"
# output 0.36 mg/kg/day

* * *

system: rodent lifetime carcinogenesis bioassay, tumor incidence TD50; assay: carcinogenic potency in animals, long-term in vivo studies, CPDB compilation (AID 1745844); conditions: rat; strain Fischer 344; males; in feed; site: tongue; lesion: squamous-cell papilloma; dosed 104 weeks; study length 105 weeks
ENDPOINT: TD50 (mg/kg/day)
One number for each entry, in mg/kg/day.

# input GET TD50 where system = rodent lifetime carcinogenesis bioassay, tumor incidence TD50 and item = "OCC(CO)(CBr)CBr"
# output 500

* * *

test system: rodent lifetime carcinogenesis bioassay, tumor incidence TD50; experiment: carcinogenic potency in animals, long-term in vivo studies, CPDB compilation (AID 1745844); conditions: mouse; strain B6C3F1; males; in feed; site: thyroid gland; lesion: c-cell carcinoma; dosed 103 weeks; study length 105 weeks
ENDPOINT: TD50

# input Specify reported TD50 for the molecule shown: "Nc1cccc2c(N)cccc12"
# output 1910 mg/kg/day

* * *

test system: rodent lifetime carcinogenesis bioassay, tumor incidence TD50; assay: carcinogenic potency in animals, long-term in vivo studies, CPDB compilation (AID 1745844); conditions: mouse; strain B6C3F1; females; in feed; site: all sites; lesion: hemangiosarcoma; dosed 78 weeks; study length 95 weeks
ENDPOINT: TD50 (mg/kg/day)
One number for each entry, in mg/kg/day.

# input GET TD50 where system = rodent lifetime carcinogenesis bioassay, tumor incidence TD50 and item = "[O-]/[N+](=N\O)c1ccccc1"
# output 1330

* * *

tested on: rodent lifetime carcinogenesis bioassay, tumor incidence TD50; assay: carcinogenic potency in animals, long-term in vivo studies, CPDB compilation (AID 1745844); details: rat; strain Fischer 344; males; in drinking water; site: pharynx + tongue; lesion: squamous-cell carcinoma; dosed 97 weeks; study length 97 weeks
ENDPOINT: TD50 (mg/kg/day)
Numbers only, in mg/kg/day.

# input Specify reported TD50 for the molecule shown: "COc1cc(-c2ccc(N=Nc3c(S(=O)(=O)O)cc4cc(S(=O)(=O)O)cc(N)c4c3O)c(OC)c2)ccc1N=Nc1c(S(=O)(=O)O)cc2cc(S(=O)(=O)O)cc(N)c2c1O"
# output 361

* * *

system: rodent lifetime carcinogenesis bioassay, tumor incidence TD50; test: carcinogenic potency in animals, long-term in vivo studies, CPDB compilation (AID 1745844); conditions: rat; strain Charles River CD (Sprague-Dawley); females; in feed; site: liver; lesion: hepatoma; dosed 91 weeks; study length 104 weeks
Calls of active or inactive are those of the source. The rule behind the calls is not given here.
ENDPOINT: TD50

# input Specify reported TD50 for the compound shown: "CC/C(=C(/CC)c1ccc(O)cc1)c1ccc(O)cc1"
# output 0.13 mg/kg/day (inactive)

* * *

tested on: rodent lifetime carcinogenesis bioassay, tumor incidence TD50; assay: carcinogenic potency in animals, long-term in vivo studies, CPDB compilation (AID 1745844); conditions: rat; strain Fischer 344; males; inhaled; site: brain; lesion: glioma; dosed 101 weeks; study length 104 weeks
ENDPOINT: TD50

# input GET TD50 where system = rodent lifetime carcinogenesis bioassay, tumor incidence TD50 and item = "C1CO1"
# output 121 mg/kg/day

* * *

tested on: rodent lifetime carcinogenesis bioassay, tumor incidence TD50; assay: carcinogenic potency in animals, long-term in vivo studies, CPDB compilation (AID 1745844); details: rat; strain Fischer 344; males; i.p.; site: small intestine; lesion: adenocarcinoma; dosed 56 weeks; study length 76 weeks
ENDPOINT: TD50

# input Specify reported TD50 for the compound shown: "C/C=C(/C)C(=O)O[C@H]1CCN2CC=C(COC(=O)[C@@](O)([C@H](C)OC)C(C)(C)O)[C@H]12"
# output 2.73 mg/kg/day

* * *

tested on: rodent lifetime carcinogenesis bioassay, tumor incidence TD50; assay: carcinogenic potency in animals, long-term in vivo studies, CPDB compilation (AID 1745844); details: mouse; strain B6C3F1; males; inhaled; site: Harderian gland; lesion: adenoma + carcinoma; dosed 95 weeks; study length 95 weeks
ENDPOINT: TD50 (mg/kg/day)
Give bare numbers, in mg/kg/day.

# input Specify reported TD50 for the compound shown: "FC(F)=C(F)F"
# output 1270

* * *

test system: rodent lifetime carcinogenesis bioassay, tumor incidence TD50; test: carcinogenic potency in animals, long-term in vivo studies, CPDB compilation (AID 1745844); conditions: mouse; strain B6C3F1; males; in feed; site: lung; lesion: alveolar/bronchiolar adenoma + alveolar/bronchiolar carcinoma; dosed 46 weeks; study length 46 weeks
ENDPOINT: TD50
Write the numeric value and follow it with the unit.

# input Specify reported TD50 for the molecule shown: "Cc1ccc2c(c1[N+](=O)[O-])C(=O)c1ccccc1C2=O"
# output 45.5 mg/kg/day

* * *

test system: rodent lifetime carcinogenesis bioassay, tumor incidence TD50; assay: carcinogenic potency in animals, long-term in vivo studies, CPDB compilation (AID 1745844); details: rat; strain Not specified; females; in feed; site: liver; lesion: carcinoma; dosed 65 weeks; study length 65 weeks
ENDPOINT: TD50

# input Specify reported TD50 for the compound shown: "Cc1cc(C)c(N=Nc2c(O)c(S(=O)(=O)O)cc3cc(S(=O)(=O)O)ccc23)cc1C"
# output 1990 mg/kg/day
